biological target: T1, Full-length isoform 165 of human VEGF-A (Homo sapiens, VEGF-A isoform 165, UniProt P15692-4); assay: SPR; Biacore T200, 25 °C, PBS with 0.05% Tween 20 and 3.4 mM EDTA; VEGF-A amine-coupled to a CM-5 chip; Fab injected in single cycle kinetics with five increasing concentrations; double referenced; fit to a 1:1 Langmuir binding model; details: both partners purified
T1 construct: VEGF-A isoform 165, human; Immobilised by amine coupling for SPR; Made in HEK cells, so probably the secreted 165-residue form without signal peptide (surmise); source: HEK, recombinant, purified
T1 sequence (P15692 other isoform, or with tags, fused parts or gaps): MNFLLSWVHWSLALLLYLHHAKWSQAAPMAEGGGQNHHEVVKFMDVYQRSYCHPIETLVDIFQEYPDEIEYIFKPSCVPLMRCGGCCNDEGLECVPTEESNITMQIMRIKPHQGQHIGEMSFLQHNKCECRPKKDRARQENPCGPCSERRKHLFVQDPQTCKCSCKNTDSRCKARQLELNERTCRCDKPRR
pKd: −log10 of the molar value.
endpoint.label: pKd

[
  {
    "binder": "bH1 Fab H3 variant 16_0460 (Fab, V domains shown, also called design 16_0460; source: CHO-3E7, co-transfected, purified from supernatant (HisTrap IMAC, SEC Superdex-200)) VH: EVQLVESGGGLVQPGGSLRLSCAASGFNIKDTYIHWVRQAPGKGLEWVARIYPTNGYTRYADSVKGRFTISADTSKNTAYLQMNSLRAEDTAVYYCARPSGGSRSWLYYFDYWGQGTLVTVSS VL: DIQMTQSPSSLSASVGDRVTITCRASQDIPRSISGYVAWYQQKPGKAPKLLIYWGSYLYSGVPSRFSGSGSGTDFTLTISSLQPEDFATYYCQQHYTTPPTFGQGTKVEIK",
    "measured": 5.35
  },
  {
    "binder": "bH1 Fab H3 variant 14_0622 (Fab, V domains shown, source: CHO-3E7, co-transfected, purified from supernatant (HisTrap IMAC, SEC Superdex-200)) VH: EVQLVESGGGLVQPGGSLRLSCAASGFNIKDTYIHWVRQAPGKGLEWVARIYPTNGYTRYADSVKGRFTISADTSKNTAYLQMNSLRAEDTAVYYCARNGGDSYSGYFQHWGQGTLVTVSS VL: DIQMTQSPSSLSASVGDRVTITCRASQDIPRSISGYVAWYQQKPGKAPKLLIYWGSYLYSGVPSRFSGSGSGTDFTLTISSLQPEDFATYYCQQHYTTPPTFGQGTKVEIK",
    "measured": 5.30
  }
]
